The reported numbers originate from patent US20250152746A1.

Test system: PCSK9 gene
method: PCSK9 gRNA/SpCas9 editing in primary cynomolgus hepatocytes (Tables 2, 22)
Assay type: cell-based, cynomolgus monkey
test_conditions: 2500 ng/RNA/mL; SpCas9 mRNA MS002 1:1 by weight
m = 2'-O-methyl; r = 2'-OH (RNA)
property: Cyno Primary Hepatocyte Editing % 2500 (%)
Answers are plain numbers, in %.

GA217: PCSK9 gRNA; protospacer GTGGTCAGCGGCCGGGATGC (SEQ ID NO: 211) (nucleic acid, sugars from the 5' end m3 r94 m3, linkages s3 o93 s3 (s phosphorothioate, o phosphodiester), T or U not given here) guide: GUGGUCAGCGGCCGGGAUGCGUUUUAGAGCUAGAAAUAGCAAGUUAAAAUAAGGCUAGUCCGUUAUCAACUUGAAAAAGUGGCACCGAGUCGGUGCUUUU = 39.21
GA218: PCSK9 gRNA; protospacer CGCTGACCACCCCTGCCAGG (SEQ ID NO: 212) (nucleic acid, sugars from the 5' end m3 r94 m3, linkages s3 o93 s3 (s phosphorothioate, o phosphodiester), T or U not given here) guide: CGCUGACCACCCCUGCCAGGGUUUUAGAGCUAGAAAUAGCAAGUUAAAAUAAGGCUAGUCCGUUAUCAACUUGAAAAAGUGGCACCGAGUCGGUGCUUUU = 58.66

Here are 4 molecules. What values of Cyno Primary Hepatocyte Editing % 2500 were reported for them?
1. GA175: PCSK9 gRNA; protospacer GAAGATGAGTGGCGACCTGC (SEQ ID NO: 169) (nucleic acid, sugars from the 5' end m3 r94 m3, linkages s3 o93 s3 (s phosphorothioate, o phosphodiester), T or U not given here) guide: GAAGAUGAGUGGCGACCUGCGUUUUAGAGCUAGAAAUAGCAAGUUAAAAUAAGGCUAGUCCGUUAUCAACUUGAAAAAGUGGCACCGAGUCGGUGCUUUU
2. GA239: PCSK9 gRNA; protospacer CCGCCTGCCAGCGCCTGGCG (SEQ ID NO: 232) (nucleic acid, sugars from the 5' end m3 r94 m3, linkages s3 o93 s3 (s phosphorothioate, o phosphodiester), T or U not given here) guide: CCGCCUGCCAGCGCCUGGCGGUUUUAGAGCUAGAAAUAGCAAGUUAAAAUAAGGCUAGUCCGUUAUCAACUUGAAAAAGUGGCACCGAGUCGGUGCUUUU
3. GA165: PCSK9 gRNA; protospacer CCGTCAGCTCCAGGCGGTCC (SEQ ID NO: 159) (nucleic acid, sugars from the 5' end m3 r94 m3, linkages s3 o93 s3 (s phosphorothioate, o phosphodiester), T or U not given here) guide: CCGUCAGCUCCAGGCGGUCCGUUUUAGAGCUAGAAAUAGCAAGUUAAAAUAAGGCUAGUCCGUUAUCAACUUGAAAAAGUGGCACCGAGUCGGUGCUUUU
4. GA201: PCSK9 gRNA; protospacer CAGCATACAGAGTGACCACC (SEQ ID NO: 195) (nucleic acid, sugars from the 5' end m3 r94 m3, linkages s3 o93 s3 (s phosphorothioate, o phosphodiester), T or U not given here) guide: CAGCAUACAGAGUGACCACCGUUUUAGAGCUAGAAAUAGCAAGUUAAAAUAAGGCUAGUCCGUUAUCAACUUGAAAAAGUGGCACCGAGUCGGUGCUUUU

Reply:
[44.77, 4.55, 35.57, 44.01]
